# Tested on: Caco2 cells
# assay-summary: Cell permeability, flux assay using Caco2 cells
# Type: in vitro ADME
# condition-description: 2 hours
Where a name gives a salt, the structure may show the parent alone. Square brackets hold non-standard residues; d marks the D form. Peptide text beside a SMILES is read from it. * marks the point of attachment. X2 = CC(C)[C@@H](C(=O)*)N(C)CCCCCCN1C(=O)CC(SC[C@H](N)C(=O)O)C1=O; X1 = CC(C)[C@@H](C(=O)*)N(C)CCCCCC(=O)NCCCC[C@H](N)C(=O)O; Dolaproine = CO[C@@H]([C@@H]1CCCN1)[C@@H](C)C(=O)O; Dil = CC[C@H](C)[C@H](NC)[C@@H](CC(=O)O)OC; X5 = C[C@@H](N*)[C@@H](O)c1ccccc1; Oxazinan2yl(1,2) = C1CCN(*)OC1; NMeV = CN[C@H](C(=O)O)C(C)C
Consider the following compounds and their measured Papp (B-A) readings.
measured-metric: Papp (B-A) (×10⁻⁶ cm/s)

* CC[C@H](C)[C@@H]([C@@H](CC(=O)N1CCC[C@H]1[C@H](OC)[C@@H](C)C(=O)N[C@@H](Cc1c[nH]c2ccccc12)C(N)=O)OC)N(C)C(=O)[C@@H](NC(=O)[C@H](C(C)C)N(C)CCCCCCN1C(=O)CC(SC[C@H](N)C(=O)O)C1=O)C(C)C (stereo partly shown) [Example 236] (X2-V[Dil][Dolaproine]W-NH2) | 0.5
* CC[C@H](C)[C@@H]([C@@H](CC(=O)N1CCC[C@H]1[C@H](OC)[C@@H](C)C(=O)N[C@@H](Cc1c[nH]c2ccccc12)C(=O)O)OC)N(C)C(=O)[C@@H](NC(=O)[C@H](C(C)C)N(C)CCCCCCN1C(=O)CC(SC[C@H](N)C(=O)O)C1=O)C(C)C (stereo partly shown) [Example 237] (X2-V[Dil][Dolaproine]W-OH) | 0.1
* CC[C@H](C)[C@@H]([C@@H](CC(=O)N1CCC[C@H]1[C@H](OC)[C@@H](C)C(=O)N[C@@H](Cc1c[nH]c2ccccc12)C(=O)N1CCCCO1)OC)N(C)C(=O)[C@@H](NC(=O)[C@H](C(C)C)N(C)CCCCCC(=O)NCCCC[C@H](N)C(=O)O)C(C)C [Example 277, trifluoroacetate] (X1-V[Dil][Dolaproine]W-{Oxazinan2yl(1,2)}) | 0.2
* CC[C@H](C)[C@@H]([C@@H](CC(=O)N1CCC[C@H]1[C@H](OC)[C@@H](C)C(=O)N[C@H](C)[C@@H](O)c1ccccc1)OC)N(C)C(=O)[C@@H](NC(=O)[C@@H](NC)C(C)C)C(C)C [monomethyl auristatin E (MMAE), monomethyl auristatin E, reference compound] (H-[NMeV]V[Dil][Dolaproine]-X5) | 7.3
* CC[C@H](C)[C@@H]([C@@H](CC(=O)N1CCC[C@H]1[C@H](OC)[C@@H](C)C(=O)N[C@@H](Cc1c[nH]c2ccccc12)C(=O)NCc1ccccc1)OC)N(C)C(=O)[C@@H](NC(=O)[C@H](C(C)C)N(C)CCCC(=O)NNC(=O)CCCCCN1C(=O)CC(SC[C@H](N)C(=O)O)C1=O)C(C)C (stereo partly shown) | 0.7
* CC[C@H](C)[C@@H]([C@@H](CC(=O)N1CCC[C@H]1[C@H](OC)[C@@H](C)C(=O)N[C@@H](Cc1ccccc1)C(=O)O)OC)N(C)C(=O)[C@@H](NC(=O)[C@@H](NC)C(C)C)C(C)C [monomethyl auristatin F (MMAF), monomethyl auristatin F, reference compound] (H-[NMeV]V[Dil][Dolaproine]F-OH) | 7.3
* CC[C@H](C)[C@@H]([C@@H](CC(=O)N1CCC[C@H]1[C@H](OC)[C@@H](C)C(=O)N[C@@H](Cc1c[nH]c2ccccc12)C(=O)O)OC)N(C)C(=O)[C@@H](NC(=O)[C@H](C(C)C)N(C)CCCC(=O)NNC(=O)CCCCCN1C(=O)CC(SC[C@H](N)C(=O)O)C1=O)C(C)C (stereo partly shown) | 0.16
